For each of the compounds below, state its relative viability.
System: 201T
Assay: relative viability (nuclei count vs DMSO), 5 days (fraction); higher = more cells survive
Settings: first compound 4 µM
Answers are plain numbers.

{"COMPOUND": "Cc1sc2c(c1C)C(c1ccc(Cl)cc1)=N[C@@H](CC(=O)OC(C)(C)C)c1nnc(C)n1-2 [JQ1] + Nc1nc2[nH]cc(CCc3ccc(C(=O)N[C@@H](CCC(=O)O)C(=O)O)cc3)c2c(=O)[nH]1 [Pemetrexed] (partner 0.2 µM)", "relative viability": 0.23}

The recorded relative viability for entry Cc1sc2c(c1C)C(c1ccc(Cl)cc1)=N[C@@H](CC(=O)OC(C)(C)C)c1nnc(C)n1-2 [JQ1] + CC(C)C[C@H](NC(=O)[C@H](Cc1ccccc1)NC(=O)c1cnccn1)B(O)O [Bortezomib] (partner 0.002 µM) equals 0.768

###

Test system: NCI-H1650
Experiment: relative viability (nuclei count vs DMSO), 5 days (fraction); higher = more cells survive
Conditions: first compound 4 µM
For each of the compounds below, state its relative viability.
One number for each entry.

{"COMPOUND": "Cc1sc2c(c1C)C(c1ccc(Cl)cc1)=N[C@@H](CC(=O)OC(C)(C)C)c1nnc(C)n1-2 [JQ1] + O=C(c1cc(Cc2n[nH]c(=O)c3ccccc23)ccc1F)N1CCN(C(=O)C2CC2)CC1 [Olaparib] (partner 8 µM)", "MEASURED_NUMBER": 0.149}
{"COMPOUND": "Cc1sc2c(c1C)C(c1ccc(Cl)cc1)=N[C@@H](CC(=O)OC(C)(C)C)c1nnc(C)n1-2 [JQ1] + N=C(N)NC(=N)NCCc1ccccc1 [Phenformin] (partner 250 µM)", "MEASURED_NUMBER": 0.137}
{"COMPOUND": "Cc1sc2c(c1C)C(c1ccc(Cl)cc1)=N[C@@H](CC(=O)OC(C)(C)C)c1nnc(C)n1-2 [JQ1] + CC1(C)CCC(c2ccc(Cl)cc2)=C(CN2CCN(c3ccc(C(=O)NS(=O)(=O)c4ccc(N[C@H](CCN5CCOCC5)CSc5ccccc5)c(S(=O)(=O)C(F)(F)F)c4)cc3)CC2)C1 [Navitoclax] (partner 0.5 µM)", "MEASURED_NUMBER": 0.169}
{"COMPOUND": "Cc1sc2c(c1C)C(c1ccc(Cl)cc1)=N[C@@H](CC(=O)OC(C)(C)C)c1nnc(C)n1-2 [JQ1] + Cc1nc(Nc2ncc(C(=O)Nc3c(C)cccc3Cl)s2)cc(N2CCN(CCO)CC2)n1 [Dasatinib] (partner 0.075 µM)", "MEASURED_NUMBER": 0.143}
{"COMPOUND": "Cc1sc2c(c1C)C(c1ccc(Cl)cc1)=N[C@@H](CC(=O)OC(C)(C)C)c1nnc(C)n1-2 [JQ1] + Cc1cc(Nc2cc(N3CCN(C)CC3)nc(Sc3ccc(NC(=O)C4CC4)cc3)n2)n[nH]1 [Tozasertib] (partner 0.1 µM)", "MEASURED_NUMBER": 0.135}

Now for a further compound.
The recorded relative viability for entry Cc1sc2c(c1C)C(c1ccc(Cl)cc1)=N[C@@H](CC(=O)OC(C)(C)C)c1nnc(C)n1-2 [JQ1] + CC(=O)Nc1cccc(-n2c(=O)n(C3CC3)c(=O)c3c(Nc4ccc(I)cc4F)n(C)c(=O)c(C)c32)c1 [Trametinib] (partner 0.02 µM) equals 0.145

These data points were gathered from the supplement of paper PMC10307832.
